Data origin: PubChem BioAssay (NCI)

experiment: NCI Yeast Anticancer Drug Screen. Data for the rad50 strain (AID 155);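 note: 0% = growth of vehicle-only cultures of the same strain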; conditions: S. cerevisiae rad50 strain growth inhibition; at 5.0 µM (retest, dose inferred, filed as 0.5); stronger effect = higher value
Compounds without any hit were thinned out: in the full panel of roughly 79,000, 15% have a hit.
Parameter growth inhibition: see the listing below.
Give your result in % as a bare value.

Consider the following illustrative entries.
molecule	growth inhibition (%)
Cc1c(N)nc(C2CC(=O)N2CC(N)C(N)=O)nc1C(=O)NC(C(=O)NC(C)C(O)C(C)C(=O)NC(C(=O)NCCc1nc(-c2nc(C(=O)NCCNCC(C)O)cs2)cs1)C(C)O)C(OC1OC(CO)C(O)C(O)C1OC1OC(CO)C(O)C(OC(N)=O)C1O)c1cnc[nH]1 (centres undefined)	94
O=C(O)C1CCc2ccc3ccccc3c2C1c1cccc2ccccc12 (centres undefined)	42

INPUT: Any idea what growth inhibition was measured for Fc1ccc(OCCC(Cn2ccnc2)c2ccc(Cl)cc2Cl)cc1 (centres undefined) ?
OUTPUT: 82

====

experiment: NCI Yeast Anticancer Drug Screen. Data for the cln2 rad14 strain (AID 165);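 note: 0% = growth equal to vehicle treated cultures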; settings: S. cerevisiae cln2 rad14 strain, at 50.0 µM, stronger effect = higher value
Compounds without any hit were thinned out: in the full panel of roughly 79,000, 15% have a hit. The source made the active and inactive calls. Cut-off read from the data, not from the text of the source: active = growth inhibition above about 70%; inactive = the rest.
observable: growth inhibition

INPUT: Any idea what growth inhibition was measured for O=C(NC1CCN(Cc2ccccc2)CC1)c1cccc(I)c1 ?
OUTPUT: 82.2% (active)

INPUT: Any idea what growth inhibition was measured for Oc1ccc(Cc2cccc(Br)c2)c(O)c1 ?
OUTPUT: 99.2% (active)

INPUT: Any idea what growth inhibition was measured for C=C1CC2(C[C@@H](c3ccccc3)O[C@@H](c3ccccc3)C2)OC1=O (some centres not stated) ?
OUTPUT: 90.5% (active)

INPUT: Any idea what growth inhibition was measured for CCOCCOC(=O)C(C)O (configuration not stated) ?
OUTPUT: 45.3% (inactive)

INPUT: Any idea what growth inhibition was measured for S=C(C#Cc1ccccc1)Nc1ccccc1 ?
OUTPUT: 99% (active)

INPUT: Any idea what growth inhibition was measured for C/C(=N/Nc1ccc([N+](=O)[O-])cc1[N+](=O)[O-])C(=O)O ?
OUTPUT: 13.2% (inactive)

INPUT: Any idea what growth inhibition was measured for [Cu+2].c1ccc2n[nH]nc2c1 ?
OUTPUT: 98.3% (active)

INPUT: Any idea what growth inhibition was measured for ClC(Cl)(Cl)C(c1ccccc1)c1ccccc1 ?
OUTPUT: -17.2% (inactive)

INPUT: Any idea what growth inhibition was measured for C=C1CC[C@@H](Br)C(C)(C)[C@]12CCC(C)(O)C(Cl)C2 (some centres not stated) ?
OUTPUT: 90.9% (active)

INPUT: Any idea what growth inhibition was measured for Cc1ccc(-c2c(N)[n+]([O-])c3ccccc3[n+]2[O-])cc1 ?
OUTPUT: 98.3% (active)

INPUT: Any idea what growth inhibition was measured for CCOC(=O)C(=C=C=C(c1ccccc1)c1ccccc1)C(=O)OCC ?
OUTPUT: 50.1% (inactive)

INPUT: Any idea what growth inhibition was measured for COc1cc(/C=C/c2cc[n+](C)cc2)ccc1O ?
OUTPUT: 79.5% (active)

====

experiment: NCI Yeast Anticancer Drug Screen. Data for the rad50 strain (AID 155);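 note: 0% = growth of vehicle-only cultures of the same strain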; settings: S. cerevisiae rad50 strain growth inhibition; at 50.0 µM (retest, dose inferred, filed as 5.0)
About 79,000 compounds went through this panel and 15% of them were active in at least one assay; those are over-represented in the sample as a whole. Active and inactive are the calls of the source. Cut-off read from the data, not from the text of the source: active = growth inhibition above about 70%; inactive = the rest.
Outcome (select one): label 1 for active, label 0 for inactive

INPUT: Per the records of this test, what outcome belongs to COc1ccc(C(c2ccc(OC)cc2)c2ccccc2C(=O)O)cc1 ?
OUTPUT: label 0

INPUT: Per the records of this test, what outcome belongs to Cc1ccc(-c2c(N)[n+]([O-])c3ccccc3[n+]2[O-])cc1 ?
OUTPUT: label 1

INPUT: Per the records of this test, what outcome belongs to CCN(CC)C(=S)N/N=C(/c1ccccc1)c1ccccn1 ?
OUTPUT: label 1

INPUT: Per the records of this test, what outcome belongs to O=C1Nc2c(Cl)cc(Cl)cc2/C1=N/N=C/c1ccccc1O ?
OUTPUT: label 0
